System: SEM cells
assay procedure: cell viability relative to DMSO control; higher = less cytotoxic
condition info: RPMI 5 mM glucose + 10% dialyzed FBS; 48 h; 15.4 µM

smiles input | cell viability
N#C/C(=C1/Nc2ccccc2S1)c1ccnc(OCc2ccc(CN3CCOCC3)cc2)n1 | 109%
Cc1c(C(=O)c2cccc3ccccc23)c2cccc3c2n1[C@H](CN1CCOCC1)CO3 | 76.5%
C1CN\2C[C@@H](\N=C2S1)C3=CC=CC=C3 | 100%
NC[C@H]1O[C@H](O[C@H]2[C@H](O)[C@@H](O[C@H]3O[C@H](CO)[C@@H](O)[C@H](N)[C@H]3O)[C@H](N)C[C@@H]2N)[C@H](N)C[C@@H]1O | 103%
